The measured values listed here are drawn from patent US20260207602A1.

- tested-target: EGFR L858R (Homo sapiens, UniProt P00533, L858R)
- Construct: purchased SignalChem E10-122BG
- Sequence (P00533 25-1210 L858R): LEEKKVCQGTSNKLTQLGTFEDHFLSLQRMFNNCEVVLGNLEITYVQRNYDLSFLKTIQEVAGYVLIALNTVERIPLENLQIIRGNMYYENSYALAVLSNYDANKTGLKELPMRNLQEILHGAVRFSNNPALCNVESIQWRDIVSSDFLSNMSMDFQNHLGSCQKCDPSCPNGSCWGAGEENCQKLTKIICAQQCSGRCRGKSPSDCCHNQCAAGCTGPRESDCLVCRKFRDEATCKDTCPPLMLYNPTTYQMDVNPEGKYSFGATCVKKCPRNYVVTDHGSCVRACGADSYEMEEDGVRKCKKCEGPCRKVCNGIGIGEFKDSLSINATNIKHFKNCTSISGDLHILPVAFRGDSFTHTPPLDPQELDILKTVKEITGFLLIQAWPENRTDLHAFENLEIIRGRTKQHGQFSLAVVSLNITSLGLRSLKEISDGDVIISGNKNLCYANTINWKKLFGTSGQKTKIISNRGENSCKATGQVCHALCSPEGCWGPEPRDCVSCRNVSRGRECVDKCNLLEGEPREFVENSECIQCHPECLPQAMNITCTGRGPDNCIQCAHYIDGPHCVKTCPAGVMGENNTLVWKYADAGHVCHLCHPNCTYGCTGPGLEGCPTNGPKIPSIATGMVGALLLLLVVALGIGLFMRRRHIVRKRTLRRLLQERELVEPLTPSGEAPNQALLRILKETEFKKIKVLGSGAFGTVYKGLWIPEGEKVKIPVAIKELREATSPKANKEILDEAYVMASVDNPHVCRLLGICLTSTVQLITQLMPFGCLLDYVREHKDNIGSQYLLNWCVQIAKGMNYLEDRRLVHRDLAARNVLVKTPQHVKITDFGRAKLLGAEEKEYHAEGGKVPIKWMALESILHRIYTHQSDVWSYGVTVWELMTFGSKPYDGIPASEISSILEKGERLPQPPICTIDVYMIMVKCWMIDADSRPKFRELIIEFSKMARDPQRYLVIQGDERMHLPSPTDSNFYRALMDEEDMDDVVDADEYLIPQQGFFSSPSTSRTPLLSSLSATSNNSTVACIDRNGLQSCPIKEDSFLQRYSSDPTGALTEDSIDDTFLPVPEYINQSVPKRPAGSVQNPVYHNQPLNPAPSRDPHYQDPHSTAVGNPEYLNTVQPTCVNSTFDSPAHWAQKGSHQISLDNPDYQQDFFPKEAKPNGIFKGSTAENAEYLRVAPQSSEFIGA
- experimental-protocol: Biochemical EGFR inhibition assay (Caliper mobility shift), EGFR L858R
- measurement-conditions: biochemical Caliper mobility shift assay, EGFR L858R enzyme; read-out: Enz EGFR L858R IC50
Entries and their IC50 values follow.

{"compound": "COc1nn(C)cc1-c1cc(O[C@H]2COC[C@@H]2O)c2c(Nc3ccc4ncsc4c3)ncnc2c1 (single isomer, unassigned) [Example A48]", "IC50": "≤ 10 nM"}

Given CN1CC[C@@H](Oc2cc(-c3cnn(C)c3)cc3ncnc(Nc4ccc5ncsc5c4)c23)[C@@H](F)C1 (single isomer, unassigned) [Example 341] , state its recorded IC50.
≤ 10 nM

// lookup IC50 for Cn1cc(-c2cc(O[C@H]3CCNC[C@@H]3F)c3c(Nc4ccc5ncsc5c4)ncnc3c2)cn1 (single isomer, unassigned) [Example 346]
≤ 10 nM

Need IC50 of CO[C@@H]1CCNC[C@H]1Oc1cc(-c2cnn(C)c2)cc2ncnc(Nc3ccc4ncsc4c3)c12 (single isomer, unassigned) [Example A37] , thanks.
≤ 10 nM

// returns reported IC50 for input C[C@@H](Oc1c(F)c(-c2cnn(C)c2)cc2ncnc(Nc3ccc4ncsc4c3F)c12)C1COC1 (single isomer, unassigned) [Example A27]
≤ 10 nM

For the compound CO[C@@H]1CNCC[C@H]1Oc1cc(-c2cnn(C)c2)cc2ncnc(Nc3ccc4ncsc4c3)c12 (single isomer, unassigned) [Example A42] , what IC50 is on record?
≤ 10 nM

Could you tell me which IC50 is on file for CN1CCC(Oc2cc(-c3cnn(C)c3)cc3ncnc(Nc4ccc5scnc5c4)c23)CC1 ?
10.1 to 50 nM

Dear colleague, I am looking for the recorded IC50 of the following compound: CCN1CCN(C(=O)Nc2cc3c(Nc4ccc5ncsc5c4F)ncnc3cc2-c2ccn(C)n2)[C@@H](C)C1
≤ 10 nM
